Just for reference, paper PMC6720600 is where these values come from.

system: TASK-3 (Homo sapiens, UniProt Q9NPC2)
Construct: gene KCNK9
Sequence (Q9NPC2 whole entry): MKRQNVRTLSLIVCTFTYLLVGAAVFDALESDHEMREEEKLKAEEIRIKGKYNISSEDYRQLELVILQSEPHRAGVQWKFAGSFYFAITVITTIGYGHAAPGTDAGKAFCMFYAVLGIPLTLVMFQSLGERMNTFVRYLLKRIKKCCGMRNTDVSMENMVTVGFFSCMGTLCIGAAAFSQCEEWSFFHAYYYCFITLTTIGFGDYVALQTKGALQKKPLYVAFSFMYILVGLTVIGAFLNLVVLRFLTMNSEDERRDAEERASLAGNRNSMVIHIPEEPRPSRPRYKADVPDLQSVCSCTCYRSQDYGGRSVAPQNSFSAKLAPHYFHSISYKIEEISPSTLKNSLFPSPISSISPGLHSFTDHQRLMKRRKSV
assayComment: whole-cell patch clamp, HEK-293 cells transfected with TASK-3
Format: cell-based
pIC50: −log10 of the molar value.

| compound | pIC50 |
| --- | --- |
| CC(C(=O)Nc1ccc(O)cc1F)c1cc2ccccc2o1 (centres unmarked) | 4.25 |
| CC(C(=O)Nc1ccc(O)cc1F)c1cc2cccc(NC(=O)c3ccc(O)cc3)c2o1 (centres unmarked) | 4.85 |

====

system: TASK-1 (Homo sapiens, UniProt O14649)
Construct: gene KCNK3
Sequence (O14649 whole entry): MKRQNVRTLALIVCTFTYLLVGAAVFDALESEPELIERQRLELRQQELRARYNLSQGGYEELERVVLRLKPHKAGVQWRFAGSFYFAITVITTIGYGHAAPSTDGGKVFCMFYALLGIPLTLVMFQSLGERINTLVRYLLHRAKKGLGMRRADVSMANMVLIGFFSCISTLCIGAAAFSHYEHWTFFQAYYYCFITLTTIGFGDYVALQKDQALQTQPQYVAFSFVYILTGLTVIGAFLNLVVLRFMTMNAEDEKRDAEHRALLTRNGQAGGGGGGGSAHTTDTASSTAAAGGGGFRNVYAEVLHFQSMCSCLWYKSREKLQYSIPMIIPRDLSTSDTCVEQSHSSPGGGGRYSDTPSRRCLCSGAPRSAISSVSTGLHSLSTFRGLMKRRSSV
assayComment: dose-response of TASK-1 channel inhibition (electrophysiology; expression details for TASK-1 not given)
Assay type: cell-based
readoutLabel: IC50 (µM)

| molecule | unitInfo | recordedMeasurement |
| --- | --- | --- |
| CC(C(=O)Nc1ccc(O)cc1F)c1cc2cccc(NC(=O)c3ccc(O)cc3)c2o1 (stereo not shown) | µM | 21.2 |
